// provenance: paper PMC5910400

The following binders are listed with their measured pKd values.
target: P1156:G4S:P1243 two-warhead evasin (Ixodes ricinus | Amblyomma americanum, UniProt V5HBW0;A0A0C9S461); test: BLI
pKd: −log10 of the molar value.

>  <Binder>
CCL4 (protein) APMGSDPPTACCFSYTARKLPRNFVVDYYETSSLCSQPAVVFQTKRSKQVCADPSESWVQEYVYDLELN

>  <pKd>
7.92

$$$$
>  <Binder>
CCL8 (protein) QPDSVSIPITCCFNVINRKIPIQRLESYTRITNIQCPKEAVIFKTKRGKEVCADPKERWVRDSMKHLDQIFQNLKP

>  <pKd>
7.08

$$$$
>  <Binder>
CCL27 (protein) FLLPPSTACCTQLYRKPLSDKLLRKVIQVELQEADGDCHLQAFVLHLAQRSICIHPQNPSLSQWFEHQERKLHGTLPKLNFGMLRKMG

>  <pKd>
7.77

$$$$
>  <Binder>
CCL14 (protein) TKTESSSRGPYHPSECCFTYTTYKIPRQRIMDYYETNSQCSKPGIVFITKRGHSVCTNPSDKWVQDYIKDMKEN

>  <pKd>
8.96

$$$$
>  <Binder>
CCL17 (protein) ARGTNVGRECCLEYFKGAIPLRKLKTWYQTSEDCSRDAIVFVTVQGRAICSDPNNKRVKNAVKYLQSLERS

>  <pKd>
8.27

$$$$
